tested on: PBMC; assay: Antiinflammatory activity in LPS-induced human PBMC cells assessed as IL-6 release at 100 uM after 24 hrs by luminex based bead assay relative to control; assay type: functional
I'd appreciate it if you could label each record using Activity and these ranges: bucket 1: < 20%; bucket 2: ≥ 20% and < 50%; bucket 3: ≥ 50%

Examples with answers:
compound | assigned label
C=C(C)/C=C/c1c2c(c(OC)c3c(=O)cc(-c4ccccc4)oc13)C=CC(C)(C)O2 | bucket 3
COc1c2c(c(/C=C/C(C)(C)OC)c3oc(-c4ccccc4)cc(=O)c13)OC(C)(C)C=C2 | bucket 1

query: Which of the defined bands does the recorded Activity of CC(C)Cc1ccc(C(C)C(=O)O)cc1 (centres undefined) sit within?
result: bucket 2

query: Also CC(=O)OCC1(C)C=Cc2c(cc(O)c3c2O[C@H](c2ccccc2)CC3=O)O1 (some centres undefined) , if possible.
result: bucket 2

query: Also O=c1cc(-c2ccc(O)cc2)oc2cc(O)cc(O)c12 , if possible.
result: bucket 2

query: Also COc1cc(-c2cc(=O)c3ccc(O)cc3o2)ccc1O , if possible.
result: bucket 3

query: Also O=c1cc(-c2ccc(O)c(O)c2)oc2cc(O)cc(O)c12 , if possible.
result: bucket 1

query: Also COc1cc2oc(-c3ccc(O)c(O)c3)c(O[C@@H]3O[C@@H](C)[C@H](O)[C@@H](O)[C@H]3O)c(=O)c2c(O)c1OC , if possible.
result: bucket 2

###

Activity reference
test system: PBMC; assay: Antiinflammatory activity in LPS-induced human PBMC cells assessed as GM-CSF release at 100 uM after 24 hrs by luminex based bead assay relative to control; assay type: functional
# number only, unit % dropped from output

compound | units label | Activity
COc1c2c(c(/C=C\C(C)(C)O)c3oc(-c4ccccc4)cc(=O)c13)OC(C)(C)C=C2 | % | 8.63
COc1cc([C@@H]2CC(=O)c3cc(OC)c(O)cc3O2)ccc1O | % | 35.76
CC1(C)C=Cc2c(cc(O)c3c(=O)cc(-c4ccc(O)cc4)oc23)O1 | % | 4.87

query: Could you share which Activity value was measured for CC(=O)OCC1(C)C=Cc2c(cc(O)c3c2O[C@H](c2ccccc2)CC3=O)O1 (stereo not given in full) ?
result: 40.97

query: Also O=c1cc(-c2ccc(O)c(O)c2)oc2cc(O)cc(O)c12 , if possible.
result: 8.63

query: Also C=C(C)/C=C/c1c2c(c(OC)c3c(=O)cc(-c4ccccc4)oc13)C=CC(C)(C)O2 , if possible.
result: 83.73

query: Also COc1cc(-c2cc(=O)c3ccc(O)cc3o2)ccc1O , if possible.
result: 92.58

query: Also CC(C)Cc1ccc(C(C)C(=O)O)cc1 (stereo not given) , if possible.
result: 47.76

query: Also O=c1cc(-c2ccc(O)cc2)oc2cc(O)cc(O)c12 , if possible.
result: 32.47

query: Also COc1c2c(c(/C=C/C(C)(C)OC)c3oc(-c4ccccc4)cc(=O)c13)OC(C)(C)C=C2 , if possible.
result: 17.39

###

test system: PBMC; test: Antiinflammatory activity in LPS-induced human PBMC cells assessed as GM-CSF release at 100 uM after 24 hrs by luminex based bead assay relative to control; assay type: functional
Exam item: assign Met to entries whose Activity is below 40% and Not met to entries at or above 40%. Note that a value of exactly 40% receives Not met.

Examples with answers:
compound | assay system | assigned label
COc1cc2oc(-c3ccc(O)c(O)c3)c(O[C@@H]3O[C@@H](C)[C@H](O)[C@@H](O)[C@H]3O)c(=O)c2c(O)c1OC | PBMC | Not met
CC(C)=CCc1c(O)cc2oc(-c3ccc(O)cc3)cc(=O)c2c1O | PBMC | Not met
C=C(C)/C=C/c1c2c(c(O)c3c(=O)cc(-c4ccccc4)oc13)C=CC(C)(C)O2 | PBMC | Not met
COc1c(O)cc2oc(-c3ccc(O)c(O)c3)c(O[C@@H]3O[C@@H](C)[C@H](O)[C@@H](O)[C@H]3O)c(=O)c2c1O | PBMC | Met
COc1cc2c(c(O)c1CC=C(C)C)C(=O)C[C@@H](c1ccc(O)cc1)O2 | PBMC | Not met

query: Is Activity of C=C(C)C(O)Cc1c(OC)cc2c(c1O)C(=O)C[C@@H](c1ccc(O)cc1)O2 (some centres undefined) strictly below 40%?
result: Met

query: Also COc1cc(O)c2c(=O)cc(-c3ccc(O)c(OC)c3)oc2c1 [VELUTIN] , if possible.
result: Met

query: Also COc1cc(-c2cc(=O)c3cc(OC)c(O)cc3o2)ccc1O , if possible.
result: Met
